Taken from the supplement of paper PMC10567573.

B1: DYRK1B (parent)
chain: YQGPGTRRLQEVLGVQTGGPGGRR

variants of: B1; assay: protein stability index of a GFP-peptide fusion (GPS, HEK-293T) (PSI 1-6); higher = more stable; conditions: c terminus: a fixed tail appended;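 note: lentivirally expressed fusions sorted by FACS into six bins by GFP to DsRed ratio, PSI derived from sequencing read proportions per bin multiplied by bin number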
Kindly return yes if reported protein stability index is no lower than 3; return no if it is lower.

Q2C
no

Is the recorded value of protein stability index equal to or greater than 3 for this variant? P20E
yes

Please do the same for R23S as well.
no

Then this variant: P4I
no

Follow-up item: V12I
yes

One more variant: V15G
yes

Subsequent entry: E11D
yes

How about this variant: T6Y
no

Continue with V12E
yes
